// data source = ChEMBL document CHEMBL3045567

System: HepG2
Test: Cytotoxicity against human HepG2 cells after 72 hrs by XTT assay
Format: functional, cell-based
Conditions: HepG2, 72 h
Measured IC50 by item

Problem: What value of IC50 has been reported for the following molecule? CC(=O)N(C(=O)c1ccccc1)N(C(C)=O)c1nc(C)c[se]1
Solution: > 68.6 µM

Problem: What value of IC50 has been reported for the following molecule? COc1ccc(/C=N/N(C(C)=O)c2nc(C)c[se]2)cc1
Solution: > 74.4 µM

Problem: What value of IC50 has been reported for the following molecule? CC(=O)N(/N=C/c1ccc(Cl)cc1)c1nc(CCl)c[se]1
Solution: > 66.7 µM
